# maps each entry to its Enzyme Activity Endpoint Assay (purified): scIgG
- Target Under Test: pooled human IgG (human IgG1,2,3 and 4)
Quick note: give the figure in ng/µL, leave out the unit.

1) PRT-515 (protein) MITSVWTKGVTPPTDFIKGEDVFHAPYKAGQGWYDITKAFDGGDDLLCGAATAGNMLHWWFDQNKEEIEAYLKKHPEKQKIMFGDQELLDVRKVINTKDSQTNSALFNYFKDKAFPNLSARRLGVMPDLVLDMFINGYYLNVYKTQTTDVNRQEQTKDRRGGIFDAVFGRGDQTKLLTERHDLKNKTLNEISQLIKQELTEGKALGLSHTYANVRINHVINLWGADFDAEGNLEAIYVTDSDSNASIGMKKYFVGVNSAGKVAISAKEIKEDNIGAQVLGLFTLSTGQKIWNKTNLEHHHHHH
0
2) PRT-459 (protein) MVTSVWTKGVTPPTDFIKGEDVFHAPYKAGQGWYDITKAFDGGDDLLCGAATAGNMLHWWFDQNKDQIERYLKEHPEKQKINFNGEQMFDVKEAIDTKDSQTNSELFNYFKEKAFPYLSTKHLGVFPDHVLDMFINGYRLSLTNHGPTPVKEGSKDPRGGIFDAVFTRGDQSKLLTSRHDFKEKTLKEISDLIKQELTEGKALGLSHTYANVRINHVINLWGADFDSEGNLKAIYVTDSDSNASIGMKKYFVGVNSAGKVAISAKEIKEDNIGAQVLGLFTLSTGQDIWNQTNLEHHHHHH
415
3) PRT-326 (protein) MTITSVWTKGVTPPTPEDFRENNEDVLHAPYVANQGWYDITKTFDGKDNLLCGAATAGNMLHWWFDQNKEEIERYLKKHPEKQKIIFGNQELFDVKAAIDTKDSQTNSKLFDYFRDKAFPNLSARQLGVMPDLVLDMFINGYYLNLGKTQSTDVNRPYQDKDKRGGIFDAVFTRGDQTTLLTARHDLKNKGLNEISDLIKQELTEGKALALSHTYANVRINHVINLWGADFDAEGELIAIYVTDSDANPSIGMKKYFVGRNANGKVAISAKKIEGDNIGAQVLGLFTLSTGQDQWQKLS
0

Return Enzyme Activity Endpoint Assay (purified): scIgG for the following protein: PRT-688 (protein) MQITSVWTKGVTPLTMDDFTINNEDVIHAPYVANQGWYDITKTFNGKDNLLCGAATAGNMLHWWFDQNKEEIERYLKKHPEKQKIIFNNQELFDLKEAINTKDSQTDSKLFNYFRDKAFPNLSARQLGVMPDLVLDMFINGYYLNVFKTQSTDVNRPYDTKDKRGGIFDHVFTRGDQSTLLTARHDLKNKTLKEISDIIKQELTEGKALALSHTYANVSISHVINLWGADFNAEGNLEAIYVTDSDANASIGMKKYYVGVNSHGKVAISAKKIEGENIGAQVLGLFTLSSGKDIWQKLSLEHHHHHH
0

Return the recorded Enzyme Activity Endpoint Assay (purified): scIgG value; entry: PRT-339 (protein) MTITSVWTKGVTPPTPEDFRENNEDVLHAPYLANQGWYDITKAFDGKDNLLCGAATAGNMLHWWFDQNKEEIERYLKKHPEKQKIIFGNQELFDVKAAIDTKDSQTNSKLFDYFRDKAFPNLSARQLGVMPDLVLDMFINGYYLNLGKTQSTDVNRPYQDKDKRGGIFDAVFTRGDQTTLLTARHDLKNKGLNEISDLIKQELTEGKALALSHTYANVSINHVINLWGADFDAEGNLEAIYVTDSDANASIGMKKYFVGRNAHGKVAISAKKIEGDNIGAQVLGLFTLSTGQDQWQKLS
288

Entry PRT-472 (protein) MVTSVWTKGVTPPTDFIYGEDVLHAPYKAGQGWYDITKTFNGKDDLLCGAATAGNMLHWWFDQNKEQIENYLKKHPEKQKINFNGEQMFDVKEAIDTKDSQLDSKLFEYFKEKAFPYLSTKHLGVFPDHVIDMFINGYRLSLTNHGPTPVKRGSKDPRGGIFDAVFTRGDQSKLLTNRHDLKNKTLKEISDLIKQELTEGKALGISHTYANVRINHVINLWGADFDAEGNLEAIYVTDSDSNASIGMKKYFVGVNSNGKVAISAKEIEEDNIGAQVLGLFTLSTGQDIWNQTNLEHHHHHH needs its Enzyme Activity Endpoint Assay (purified): scIgG filled in; supply it.
0

Give a short answer stating reported Enzyme Activity Endpoint Assay (purified): scIgG for PRT-335 (protein) MTITSVWTKGVTPPTPEDFRENNEDVLHAPYVANQGWYDITKTFDGKDNLLCGAATAGNMLHWWFDQNKEEIERYLKKHPEKQKIIFGNQELFDVKAAIDTKDSQTNSKLFDYFRDKAFPGLSARQLGVFPDLVLDMFINGYYLNLGKTQSTDVNRPYQDKDKRGGIFDAVFTRGVQTTLLTARHDLKNKGLNEISDLIKQELTEGKALALSHTYANVRINHVINLWGADFDAEGELIAIYVTDSDANPSIGMKKYFVGRNANGKVAISAKKIEGDNIGAQVLGLFTLSTGQDQWQKLS .
514

Quote Enzyme Activity Endpoint Assay (purified): scIgG reported for PRT-370 (protein) MSQTEDSESLQRLRDIEDFQAEKKDQNVVYTKWLDGVDVKDHDFRKIVDGNSAYYATPLLNGRGWYDINKDFNRDNDKCAAAVAANMFHYWLDRNRDNVDRFLRQNPEKHGIIELPDGQLKLSDFLNTYESDDGYRDKSKLFDFISENFNGPVWTDKLLDNYINGYAYNYKYGRTIEDSTKNTSKINFFKEVFNEKILTNNHSIRNQNEFSVLLIEALYTGKAIGLSYGPAGLRHSLGHIISVWGADLDADGNVVAIYVTDSDDKKLTIGDERVGLKRYKISTDDEGRLRLTAYEETHNTGGQVRGLWTLDTGKQAWADYFDKTEQTGTDQAEQ please.
288
